Test: Compound cytotoxicity, XTT-based colorimetric assay
Assay type: cell-based
Details: human; uninfected MT2 cells, day 4, XTT

| COMPOUND | CC50 at 4 days |
| --- | --- |
| Cn1nc(NS(C)(=O)=O)c2c(Cl)ccc(-n3c([C@@H](Cc4cc(F)cc(F)c4)NC(=O)Cn4nc(C(F)F)c5c4C(F)(F)[C@@H]4C[C@H]54)nccc3=O)c21 [Example 3] | > 1000 nM |
| Cn1nc(NS(C)(=O)=O)c2c(Cl)ccc(-n3c([C@@H](Cc4cc(F)cc(F)c4)NC(=O)Cn4nc(C(F)(F)F)c5c4C(F)(F)[C@@H]4C[C@H]54)nccc3=O)c21 [Example 5] | > 1000 nM |
| Cn1nc(NS(C)(=O)=O)c2c(Cl)ccc(-n3c([C@H](Cc4cc(F)cc(F)c4)NC(=O)Cn4nc(C(F)(F)F)c5c4C(F)(F)[C@@H]4C[C@H]54)nccc3=O)c21 [Example 6] | > 1000 nM |
| Cn1nc(NS(C)(=O)=O)c2c(Cl)ccc(-n3c([C@H](Cc4cc(F)cc(F)c4)NC(=O)Cn4nc(C(F)F)c5c4C(F)(F)[C@@H]4C[C@H]54)nccc3=O)c21 (mixture of isomers) [Example 1] | > 1000 nM |

###

Test system: uninfected MT2 cells
Assay: Compound cytotoxicity, XTT-based colorimetric assay
Type: cell-based
Conditions: day 4, XTT
Consider the following molecules and their measured CC50 readings.

| MOLECULE | CC50 |
| --- | --- |
| Cn1nc(NS(C)(=O)=O)c2c(Cl)ccc(-n3c([C@H](Cc4cc(F)cc(F)c4)NC(=O)Cn4nc(C(F)F)c5c4C(F)(F)[C@@H]4C[C@H]54)nccc3=O)c21 [Example 4] | > 1 µM |
| Cn1nc(NS(C)(=O)=O)c2c(Cl)ccc(-n3c([C@H](Cc4cc(F)cc(F)c4)NC(=O)Cn4nc(C(F)F)c5c4C(F)(F)[C@@H]4C[C@H]54)nccc3=O)c21 (mixture of isomers) [Example 2] | > 1 µM |
